Data provenance is patent US20240294651A1.

# assay system: T1, terbium-labelled SNAP-CXCR4 on HEK-293 cells (Cisbio C1TT1CXCR4) (human, UniProt P61072 1-352 (Pan troglodytes entry), terbium label on the SNAP tag)
# T1 construct: Bought assay-ready cells; also called CXCR4 expressing cells; not shown: SNAP tag
# T1 sequence (P61072 whole entry): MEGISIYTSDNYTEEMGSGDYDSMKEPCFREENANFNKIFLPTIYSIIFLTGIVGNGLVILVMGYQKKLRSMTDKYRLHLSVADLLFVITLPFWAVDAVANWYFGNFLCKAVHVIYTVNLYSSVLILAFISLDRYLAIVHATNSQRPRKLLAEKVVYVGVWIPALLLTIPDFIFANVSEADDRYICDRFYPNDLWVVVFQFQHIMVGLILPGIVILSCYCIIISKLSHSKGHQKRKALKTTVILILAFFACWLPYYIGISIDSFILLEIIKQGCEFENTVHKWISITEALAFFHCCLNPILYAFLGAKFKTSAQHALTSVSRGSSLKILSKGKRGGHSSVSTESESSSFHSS
# experiment summary: TR-FRET (Tag-lite) competition with AlexaFluor 647-CXCL12 on terbium-labelled SNAP-CXCR4 HEK-293 cells
value kind: pIC50
When answering, recall that pIC50 equals minus log10 of the concentration in mol/L, and write that number alone.

For the binder CL-82523 (antibody, human IgG4 S228P, kappa, V domains shown, Tested in human IgG4-PE format) VH: EVQLVESGGGLVQPGGSLRLSCAASGFTFSNYAMSWVRQAPRKGLEWVSVISGSGGRTNYAGSVKGRFSITRDNSKNTLYLQMNSLRAEDTAVYYCVKGQLERRYYYYYGMDVWGQGITVTVSS VL: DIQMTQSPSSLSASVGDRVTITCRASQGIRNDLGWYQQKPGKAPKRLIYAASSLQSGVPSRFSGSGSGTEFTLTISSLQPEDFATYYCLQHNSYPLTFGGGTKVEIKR , give its measured pIC50 value.
9.26

For the binder CL-82458 (antibody, human IgG4 S228P, kappa, V domains shown, Tested in human IgG4-PE format; also called CL-82458 (IgG4-PE format)) VH: EVQLVESGGDLVQPGGSLRLSCAASGFTFYSYAMNWVRQAPGKGLKWVSGISGSGDITYYADSVKGRFTISRDNSKNTLYLQMHSLRPEDTAIYYCAKGQLERRYYKYYGMDVWGQGTTVTVSS VL: DIQMTQSPSSLSASVGDRVTITCRANQGIRNDLGWYQQKPGKAPKRLIYGASSLKSGVPSRFSGSGSGTEFTLTISSLQPEDFATYYCLQQNSYPLTFGGGTKVEIKR , give its measured pIC50 value.
9.10
